The origin of these recorded values is ChEMBL document CHEMBL1129576.

# Tested on: SK-MEL-28
# assay_details: In vitro tumor cell growth inhibitory activity against Human melanoma cell lines. SK-MEL-28
# Type: functional, cell-based
measured_parameter: IC50 (nM)
Numbers only, in nM.

Ask: Supply reported IC50 belonging to this molecule: C#C[C@]1(O)[C@@H](CO)O[C@@H](n2ccc(=O)[nH]c2=O)[C@@H]1O
Result: 86

* * *

Please provide measured IC50 for the entries that follow.
# Test system: T-24
# assay_details: In vitro tumor cell growth inhibitory activity against Human bladder carcinoma cell lines. T24
# Type: functional, cell-based
For clarity, give the value followed by its unit.

C#C[C@]1(O)[C@@H](CO)O[C@@H](n2ccc(=O)[nH]c2=O)[C@@H]1O	210 nM

Note: attention shifts to another entry.
Ask: Look up and report IC50, with T-24 as system, for C#C[C@]1(O)[C@@H](CO)O[C@@H](n2ccc(N)nc2=O)[C@@H]1O
Result: 28 nM
